Target: UniProt P01375
Assay: TNFα FP Competitive Binding Assay
Settings: Table BK; read-out: TNF IC50
pIC50: −log10 of the molar value.
pIC50 values, listed per item

Look up pIC50: O[C@H]1CC[C@H](COc2cc(-c3ccc4nc5n(c4n3)[C@@H](c3ccccc3)CC5)ccn2)CC1 [BK.2] 5.00 to 6.00

Look up pIC50: O[C@H]1CC[C@@H](COc2cc(-c3ccc4nc5n(c4n3)[C@@H](c3ccccc3)CC5)ccn2)CC1 [BK.1] > 6.00

Look up pIC50: OC[C@H]1CC[C@H](COc2cc(-c3ccc4nc5n(c4n3)[C@@H](c3ccccc3)CC5)ccn2)CC1 [BK.3] 5.00 to 6.00

---

Molecular target: TNFα trimer (Homo sapiens, UniProt P01375)
Sequence (P01375 77-233 limits assumed): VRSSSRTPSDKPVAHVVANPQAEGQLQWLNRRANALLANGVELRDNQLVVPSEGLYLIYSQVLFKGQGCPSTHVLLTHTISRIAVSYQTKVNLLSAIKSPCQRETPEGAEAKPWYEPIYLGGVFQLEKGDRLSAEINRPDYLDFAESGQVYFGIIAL
Test: TNFα FP Competitive Binding Assay
Conditions: TNFα FP competitive binding assay; class symbols A/B/C; read-out: TNF IC50
pIC50: −log10 of the molar value.
pIC50 values, listed per item

Example entries and their recorded answers appear below.
| compound | systemUnderTest | result |
| --- | --- | --- |
| CN1CCN(c2ncc(-c3ccc4nc5n(c4n3)C3(CCOc4ccccc43)COC5)cn2)CC1 (centres unmarked) [BB.8] | TNFα trimer (Homo sapiens, UniProt P01375) | 5.00 to 6.00 |
| COc1ncc(-c2ccc3nc4n(c3c2)C(c2ccccc2)COC4)cc1C (centres unmarked) [T.7] | TNFα trimer (Homo sapiens, UniProt P01375) | 5.00 to 6.00 |
| OC1CCC(Oc2cc(-c3ccc4nc5n(c4n3)C3(COC5)COc4ccccc43)ccn2)C1 (centres unmarked) [AX.3] | TNFα trimer (Homo sapiens, UniProt P01375) | > 6.00 |
| c1ccc([C@H]2CCc3nc4ccc(-c5ccnc(OC6CCOCC6)c5)cc4n32)cc1 [AA.4] | TNFα trimer (Homo sapiens, UniProt P01375) | > 6.00 |
| O=c1cc(-c2ccc3nc4n(c3n2)[C@@H](c2ccccc2)CC4)ccn1CC1CCOCC1 [AW.3] | TNFα trimer (Homo sapiens, UniProt P01375) | 5.00 to 6.00 |
| OC1CCN(c2ncc(-c3ccc4nc5n(c4n3)C3(CCOc4ccccc43)COC5)cn2)C1 (centres unmarked) [BB.5] | TNFα trimer (Homo sapiens, UniProt P01375) | > 6.00 |

Look up pIC50: N#C[C@@H]1CC[C@@H](Oc2cc(-c3ccc4nc5n(c4n3)[C@@H](c3ccccc3)CC5)ccn2)C1 [AS.7] 5.00 to 6.00

Look up pIC50: c1ccc(C2COCc3nc4ccc(-c5cnc(NC6CCCC6)nc5)cc4n32)cc1 (centres unmarked) [T.17] 5.00 to 6.00

---

IC50 values, listed per item
Molecular target: TNFα trimer (Homo sapiens)
Assay: TNFα FP Competitive Binding Assay
Settings: TNFα FP competitive binding assay; class symbols A/B/C; read-out: TNF IC50

Example entries and their recorded answers appear below.
| compound | IC50 |
| --- | --- |
| OC[C@@H]1CCCN1c1ncc(-c2ccc3nc4n(c3n2)[C@@H](c2ccccc2)CC4)cn1 | 1000 to 10000 nM |
| COc1ccccc1C1CCCc2nc3ccc(-c4cnc(N5CCC(O)CC5)nc4)nc3n21 (centres unmarked) | < 1000 nM |
| c1ccc2c(c1)OCCC21COCc2nc3ccc(-c4ccnc(OC5CCOCC5)c4)nc3n21 (centres unmarked) | < 1000 nM |
| COc1ccccc1C1CCCCc2nc3ccc(-c4cnc(NCC(=O)O)nc4)cn3c21 (centres unmarked) | 1000 to 10000 nM |
| c1ccc([C@H]2CCc3nc4ccc(-c5ccnc(O[C@@H]6CCNC6)c5)nc4n32)cc1 | 1000 to 10000 nM |
| CC(O)c1ncc(-c2ccc3nc4n(c3n2)[C@@H](c2ccccc2)CC4)cn1 (some centres unmarked) | 1000 to 10000 nM |
| O=C1NC[C@@H]2CN(c3ncc(-c4ccc5nc6c(n5c4)[C@@H](c4ccccc4)COC6)cn3)CCN12 | < 1000 nM |

Pending compound:
Enter reported IC50 observed with TNFα trimer (Homo sapiens) for COc1ccccc1C1CCCc2nc3ccc(-c4cnc(N5CCCOCC5)nc4)cn3c21 (centres unmarked) < 1000 nM
